Values compiled from ChEMBL document CHEMBL1133926.

target: Plasminogen (Homo sapiens, UniProt P00747); experiment: Relative affinity for Plasmin compared to compound 1
Sequence (P00747 97-580 limits assumed): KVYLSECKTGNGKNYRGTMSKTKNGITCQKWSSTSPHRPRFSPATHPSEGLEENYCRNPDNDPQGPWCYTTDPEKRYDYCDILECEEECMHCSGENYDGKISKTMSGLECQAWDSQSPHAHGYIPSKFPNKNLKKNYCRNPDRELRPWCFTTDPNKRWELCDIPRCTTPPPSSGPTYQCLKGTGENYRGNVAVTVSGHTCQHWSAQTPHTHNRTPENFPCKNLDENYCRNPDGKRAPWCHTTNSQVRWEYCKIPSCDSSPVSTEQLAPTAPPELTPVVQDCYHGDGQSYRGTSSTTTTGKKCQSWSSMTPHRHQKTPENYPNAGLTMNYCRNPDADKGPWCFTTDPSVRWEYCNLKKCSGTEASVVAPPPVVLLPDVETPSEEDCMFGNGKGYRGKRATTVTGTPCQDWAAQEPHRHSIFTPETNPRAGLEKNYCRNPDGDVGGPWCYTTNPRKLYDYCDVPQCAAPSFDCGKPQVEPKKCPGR
Sequence (P00747 581-810 limits assumed): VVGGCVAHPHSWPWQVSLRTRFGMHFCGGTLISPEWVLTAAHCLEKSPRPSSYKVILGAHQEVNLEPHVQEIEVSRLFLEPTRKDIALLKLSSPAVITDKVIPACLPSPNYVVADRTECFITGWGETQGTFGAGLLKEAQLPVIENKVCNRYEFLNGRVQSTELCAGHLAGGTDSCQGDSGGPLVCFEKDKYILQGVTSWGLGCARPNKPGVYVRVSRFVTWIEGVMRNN
reported-metric: Selectivity

Use the examples below as a reference point.
molecule=N=C(N)c1ccc2[nH]c(-c3cc(C(=O)O)cc(-c4cccc([N+](=O)[O-])c4)c3O)cc2c1 measured_value=75
molecule=N=C(N)c1ccc2[nH]c(-c3cc(CC(=O)O)cc(-c4cccc(OP(=O)(O)O)c4)c3O)cc2c1 measured_value=4

P. N=C(N)c1ccc2[nH]c(-c3cc(CC(N)C(=O)O)cc(-c4cccc([N+](=O)[O-])c4)c3O)cc2c1 (stereo not drawn)
Q. N=C(N)c1ccc2[nH]c(-c3cc(CC(=O)O)cc(-c4cccc(-c5nn[nH]n5)c4)c3O)cc2c1
R. N=C(N)c1ccc2[nH]c(-c3cc(CC(=O)O)cc(-c4cccc([N+](=O)[O-])c4)c3O)cc2c1
S. N=C(N)c1ccc2[nH]c(-c3cc(CCC(=O)O)cc(-c4cccc([N+](=O)[O-])c4)c3O)cc2c1
T. N=C(N)c1ccc2[nH]c(-c3cc(-c4nn[nH]n4)cc(-c4cccc([N+](=O)[O-])c4)c3O)cc2c1
Query: Ascending sort, Selectivity. List labels; respect the requested ordering.
Result: Q, P, S, T, R
(Q: 2, P: 3, S: 6, T: 20, R: 90)
